>  <MOLECULE>
O=c1[nH]c2cc(Cl)ccc2c(O)c1-c1ccccc1Oc1ccccc1

>  <melting point>
284 to 288 °C

$$$$
>  <MOLECULE>
CCC1(CCO)C(=O)N2CC=CC(C(=O)OC)N2C1=O (stereo unspecified)

>  <melting point>
87 to 92 °C

$$$$
>  <MOLECULE>
COC(=O)C(O)c1ccc2c(c1)OCO2 (stereo unspecified)

>  <melting point>
93 to 95 °C

$$$$
>  <MOLECULE>
CC(C)N=C(N)Nc1ccnc(OCCCO)n1

>  <melting point>
181 to 183 °C

$$$$
>  <MOLECULE>
O=C1c2cc(OCCCl)ccc2-c2ccc(OCCCl)cc21

>  <melting point>
135 to 139 °C

$$$$
>  <MOLECULE>
CC(C)(C)NC(=O)c1cccc(C(=O)O)c1O

>  <melting point>
191 to 195 °C

$$$$
>  <MOLECULE>
O=C1CCN(C(=O)Cl)c2cc(Cl)ccc21

>  <melting point>
150 to 153 °C

$$$$
>  <MOLECULE>
COCC(C)(COC)C(=O)O[C@H]1C[C@H](O)C=C2C=C[C@H](C)[C@H](CC[C@@H]3C[C@@H](O)CC(=O)O3)[C@H]21

>  <melting point>
122 to 123 °C

$$$$
>  <MOLECULE>
Cc1n[nH]c(=O)c(-c2c(F)cccc2Cl)c1-c1ccc(Cl)nc1

>  <melting point>
166 to 167 °C

$$$$
>  <MOLECULE>
Cc1ccc(S(=O)(=O)OCC2COc3ccc4nocc4c3O2)cc1 (stereo unspecified)

>  <melting point>
109 to 110 °C

$$$$
>  <MOLECULE>
Cc1nc(N2CCN(CC(C)C)C2=O)sc1C(N)=O

>  <melting point>
212 to 215 °C

$$$$
>  <MOLECULE>
NC(N)=Nc1nc(-c2cccc(CSc3nc4ccccc4[nH]3)n2)cs1

>  <melting point>
209 to 211 °C

$$$$
>  <MOLECULE>
CNC(=O)CC1c2cc(C#N)ccc2OC(C)(C)C1O (stereo unspecified)

>  <melting point>
141 to 142 °C

$$$$
>  <MOLECULE>
O=C1c2c(-c3ccccc3)noc2CCC1CCCN1CCCCC1 (stereo unspecified)

>  <melting point>
91.5 to 93.5 °C

$$$$
>  <MOLECULE>
Cc1nccn1N=Cc1ccc(N(C)C)cc1

>  <melting point>
166 to 167 °C

$$$$
>  <MOLECULE>
O=C(NC1CC1)c1ccc(N2CCNCC2)c(F)c1

>  <melting point>
141 to 143 °C

$$$$

----------
We begin with a simple list: items and their reported melting point.
MEASUREMENT_KIND: melting point

>  <MOLECULE>
COc1ccc(CN(C)C(=O)CCCc2ccc([N+](=O)[O-])cc2)cc1OC

>  <MEASURED_RESULT>
90 °C

$$$$
>  <MOLECULE>
O=C1C=C2CN(C(C(=O)C3CC3)c3ccccc3Cl)CCC2S1 (configuration not stated)

>  <MEASURED_RESULT>
119 to 123 °C

$$$$
>  <MOLECULE>
C#CCOc1cc(C(N)=O)cc(Cl)c1OCC#C

>  <MEASURED_RESULT>
122 to 125 °C

$$$$
>  <MOLECULE>
CCOC(=O)Cc1ccc(NC(=O)C(CCc2ccccc2)NS(=O)(=O)c2ccc(Cl)cc2)cc1 (racemic)

>  <MEASURED_RESULT>
114 to 115 °C

$$$$
>  <MOLECULE>
CCn1c(C)c(C(=O)c2ccccc2)c(N=Cc2ccccc2)c1-c1ccccc1

>  <MEASURED_RESULT>
147 to 148 °C

$$$$
>  <MOLECULE>
O=C(N[C@H](Cc1ccccc1)[C@H](O)C(=O)O)c1ccccc1

>  <MEASURED_RESULT>
172 to 173 °C

$$$$
>  <MOLECULE>
CCOC(=O)C(C=O)Cc1ccc(C)nc1 (configuration not stated)

>  <MEASURED_RESULT>
142 to 144 °C

$$$$
>  <MOLECULE>
Cc1cc(CNC(=O)c2nc3n(c(=O)c2O)CCN3C)ccc1F

>  <MEASURED_RESULT>
187 to 189 °C

$$$$
>  <MOLECULE>
CN(C(=O)CN(C(=O)CNC(=O)OC(C)(C)C)c1ccccc1OCc1ccccc1)c1ccccc1

>  <MEASURED_RESULT>
168 to 170 °C

$$$$
>  <MOLECULE>
CCCCOC(=O)Nc1cccc(C(C)=O)c1

>  <MEASURED_RESULT>
59 to 60 °C

$$$$
>  <MOLECULE>
C=CCNc1cc(Oc2ccccc2)ccc1[N+](=O)[O-]

>  <MEASURED_RESULT>
67 to 68 °C

$$$$
>  <MOLECULE>
CC(CO)NC(=O)C(NC(=O)OCc1ccccc1)C(Cc1ccccc1)C(=O)O (configuration not stated)

>  <MEASURED_RESULT>
110 to 111 °C

$$$$
>  <MOLECULE>
CC(=O)OC(C)c1ccc2occ(C#N)c(=O)c2c1 (configuration not stated)

>  <MEASURED_RESULT>
148 to 149 °C

$$$$
>  <MOLECULE>
COc1cccc(-c2ccc(C(=O)NCCOc3ccc(CC(Oc4ccc(C(C)C)cc4)C(=O)O)cc3)cc2)c1 (configuration not stated)

>  <MEASURED_RESULT>
138 to 139 °C

$$$$
>  <MOLECULE>
O=C1CCCCN1c1ccc(I)cc1

>  <MEASURED_RESULT>
108 to 110 °C

$$$$
>  <MOLECULE>
CC(C)(C)C1=CC(=Cc2cccc([N+](=O)[O-])c2)C=C(C(C)(C)C)C1=O

>  <MEASURED_RESULT>
118 °C

$$$$
>  <MOLECULE>
CCOc1ccc(OCC(=O)OC(C)(C)C)c2c1C(=O)N(CCl)S2(=O)=O

>  <MEASURED_RESULT>
117 to 119 °C

$$$$
>  <MOLECULE>
c1ccc2[nH]c(Cc3ccncc3)nc2c1

>  <MEASURED_RESULT>
185 to 186 °C

$$$$
>  <MOLECULE>
CC(C)(C)C(=O)Nc1cc(Cl)c(Cl)cn1

>  <MEASURED_RESULT>
105 to 106 °C

$$$$
>  <MOLECULE>
CC(C)(C)N(N)C(=O)c1ccccc1

>  <MEASURED_RESULT>
124 to 125 °C

$$$$
>  <MOLECULE>
CCC(=CC(N)C(=O)O)CP(=O)(O)O (configuration not stated)

>  <MEASURED_RESULT>
176 °C

$$$$
>  <MOLECULE>
Cc1cc(C)cc(Oc2[nH]c(=O)[nH]c(=O)c2C(C)C)c1

>  <MEASURED_RESULT>
91 to 92 °C

$$$$
>  <MOLECULE>
CCCc1nc2c(N)nc3cc(-c4ccccc4)ccc3c2n1CCCONC(=O)C(C)C

>  <MEASURED_RESULT>
169 to 171 °C

$$$$
>  <MOLECULE>
CC(C)[Si](C#Cc1c2cc3ccccc3cc2c(C#C[Si](C(C)C)(C(C)C)C(C)C)c2cc3ccccc3cc12)(C(C)C)C(C)C

>  <MEASURED_RESULT>
210 °C

$$$$
>  <MOLECULE>
CC(C)NC(=O)c1cccc(I)c1C(=O)Nc1ccc(OCC(F)(F)F)nc1

>  <MEASURED_RESULT>
200 to 203 °C

$$$$
>  <MOLECULE>
COc1ccc(-c2c(Cl)c(CN3C(=O)COC3=O)nc3sc4c(c23)CCC(C(N)=O)C4)cc1 (configuration not stated)

>  <MEASURED_RESULT>
155 to 156 °C

$$$$
>  <MOLECULE>
OCCn1ccc2cccnc21

>  <MEASURED_RESULT>
52.7 to 53.3 °C

$$$$
>  <MOLECULE>
COC(=O)COc1cccc2c1CCCC2=O

>  <MEASURED_RESULT>
82 to 83 °C

$$$$
>  <MOLECULE>
COC(=O)CC(=O)Nc1cccc(COc2ccc(C(C)=O)c(F)c2)c1

>  <MEASURED_RESULT>
102 to 104 °C

$$$$
>  <MOLECULE>
COc1cccc(N(C)C(=O)c2cnc(-c3cccc(C)c3)s2)c1

>  <MEASURED_RESULT>
88 °C

$$$$
>  <MOLECULE>
COc1ccc2cc(C3=CCNCC3)sc2c1

>  <MEASURED_RESULT>
124 to 127 °C

$$$$
>  <MOLECULE>
Cn1nc(-c2ccc(F)cc2)c(-c2ccncc2)c1CCCc1ccc([N+](=O)[O-])cc1

>  <MEASURED_RESULT>
129 to 132 °C

$$$$
